Cited source for all entries: patent US20030088061A1

The reader will find reported TOXICITY LD50 values listed item by item below.
System: Jurkat cells
protocol_text: Jurkat cell toxicity (CellTiter 96 Aqueous One Solution)
Assay type: cell-based
experimental_context: four hr or 24 hr incubation
// note: answer is a bare numeric in µM

Entry N[C@@H]1Cc2ccccc2O[C@@H]1c1ccc2c(c1)CCO2 , TOXICITY LD50 reported as 25

---
Note to self: TOXICITY LD50 recorded for CN1CCCN(C(=O)/C=C/c2ccc(Sc3ccc4c(ccn4C)c3)c(Cl)c2Cl)CC1.O=C(O)C(F)(F)F was 25

---

subject_of_test: α4β7 (Homo sapiens, UniProt P13612+P26010)
Construct: endogenous in cells
Sequence (P13612 34-1032): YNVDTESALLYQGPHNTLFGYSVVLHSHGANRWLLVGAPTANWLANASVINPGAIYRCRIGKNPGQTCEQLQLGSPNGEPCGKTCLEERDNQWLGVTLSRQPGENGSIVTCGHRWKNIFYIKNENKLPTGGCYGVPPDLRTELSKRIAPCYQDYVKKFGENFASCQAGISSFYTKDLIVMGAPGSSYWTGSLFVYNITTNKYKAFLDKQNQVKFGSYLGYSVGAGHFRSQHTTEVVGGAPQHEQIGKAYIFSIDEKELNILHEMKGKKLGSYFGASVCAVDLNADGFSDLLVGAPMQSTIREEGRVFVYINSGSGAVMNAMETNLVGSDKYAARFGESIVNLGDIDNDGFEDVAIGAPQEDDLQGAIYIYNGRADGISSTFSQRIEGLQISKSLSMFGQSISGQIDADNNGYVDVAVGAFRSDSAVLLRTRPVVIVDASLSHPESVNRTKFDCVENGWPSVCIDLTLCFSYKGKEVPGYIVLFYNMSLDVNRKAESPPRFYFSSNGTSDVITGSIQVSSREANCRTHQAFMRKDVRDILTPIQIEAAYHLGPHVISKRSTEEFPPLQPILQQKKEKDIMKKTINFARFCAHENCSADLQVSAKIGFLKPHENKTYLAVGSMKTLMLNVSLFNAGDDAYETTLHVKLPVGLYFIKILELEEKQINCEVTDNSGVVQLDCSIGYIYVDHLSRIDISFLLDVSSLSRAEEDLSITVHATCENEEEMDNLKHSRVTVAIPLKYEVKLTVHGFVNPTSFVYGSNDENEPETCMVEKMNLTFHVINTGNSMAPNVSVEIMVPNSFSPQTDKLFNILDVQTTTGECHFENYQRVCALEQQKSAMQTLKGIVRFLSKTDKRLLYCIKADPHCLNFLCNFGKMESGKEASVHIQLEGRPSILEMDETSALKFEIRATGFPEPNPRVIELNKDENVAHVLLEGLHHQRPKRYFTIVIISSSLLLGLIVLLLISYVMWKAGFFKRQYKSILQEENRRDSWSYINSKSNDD
Sequence (P26010 20-798): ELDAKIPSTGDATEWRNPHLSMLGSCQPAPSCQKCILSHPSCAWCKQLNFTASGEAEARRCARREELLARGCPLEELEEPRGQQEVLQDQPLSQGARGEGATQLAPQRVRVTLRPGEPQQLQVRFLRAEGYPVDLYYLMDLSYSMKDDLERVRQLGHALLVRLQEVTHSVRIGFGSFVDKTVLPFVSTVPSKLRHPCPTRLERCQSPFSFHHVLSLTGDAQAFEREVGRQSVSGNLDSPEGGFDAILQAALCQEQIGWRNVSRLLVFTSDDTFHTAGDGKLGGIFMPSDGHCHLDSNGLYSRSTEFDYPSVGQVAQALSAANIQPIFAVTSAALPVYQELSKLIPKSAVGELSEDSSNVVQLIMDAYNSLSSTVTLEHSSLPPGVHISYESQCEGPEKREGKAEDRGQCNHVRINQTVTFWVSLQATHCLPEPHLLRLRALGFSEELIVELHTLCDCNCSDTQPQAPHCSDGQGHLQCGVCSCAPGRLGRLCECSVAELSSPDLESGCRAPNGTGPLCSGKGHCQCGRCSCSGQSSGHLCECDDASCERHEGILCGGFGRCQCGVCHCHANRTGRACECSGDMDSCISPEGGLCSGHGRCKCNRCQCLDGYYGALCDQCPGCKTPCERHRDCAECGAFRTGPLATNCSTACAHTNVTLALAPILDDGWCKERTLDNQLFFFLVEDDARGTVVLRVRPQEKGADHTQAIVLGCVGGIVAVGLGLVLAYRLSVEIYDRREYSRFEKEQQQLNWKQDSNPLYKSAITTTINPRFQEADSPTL
protocol_text: JY/α4β7 cell adhesion to MAdCAM-1/Ig
experimental_context: PMA-treated JY cells
Description: To assess the selectivity of each compound, an IC50 value was determined for additional binding partner compounds JY/αVβ3 and vitronectin, JY/α4β1 and VCAM/Ig, JY/αdβ2 and VCAM, JY/[…] and ICAM-1, JY/αMβ2 and iC3b, and JY/α4β7 and MAdCAM-1. […] The adhesion assay was initiated by addition of 100 μl of the cell suspension to each well of the Immulon-4 plate. […] Adherent cells were quantitated by determining the absorbance at 570 nm in a plate spectrophotometer. […]
Below, each entry is listed with its recorded pIC50.
In plain terms, pIC50 is the concentration in mol/L turned into minus its base-10 logarithm.

Solved cases below.
O=C(NCc1cccnc1)c1ccccc1C(=O)Nc1sc2ccccc2c1Cl yielded pIC50 of 5.40

For this molecule ( CC(CN(C)C)NCc1ccccc1Sc1ccc(C(C)(C)C)cc1 (stereo not shown) ), measured pIC50 is 4.96

pIC50 measured on CC(=O)Oc1ccccc1C(=O)n1c(-c2ccccc2)cc2ccccc21 = 5.40

Next molecule, pIC50 to be filled in.
Item: Nc1ccc(Sc2ccc(NC(=O)CCc3ccccc3)cc2)c(Cl)c1 | pIC50: 5.30
